The next entries give measured Ki for UniProt:Q07820.

{"COMPOUND": "Cc1c2c(nn1C)COCc1cc(n(C)n1)CCc1cc(c3ccccc3c1)OCCCc1c(C(=O)O)n(C)c3c-2c(Cl)ccc13 (single isomer, unassigned) [Compound 2]", "Ki, pM": 444}
{"COMPOUND": "COCCOCCn1nc(C)c2c1COCc1cc(n(C)n1)CCc1cc(c3ccc(F)cc3c1)OCCCc1c(C(=O)O)n(C)c3c-2c(Cl)ccc13 (single isomer, unassigned) [Compound 17]", "Ki, pM": 25}
{"COMPOUND": "Cc1c2c(nn1C)COCc1cc(n[nH]1)CSc1cc(c3ccccc3c1)OCCCc1c(C(=O)O)n(C)c3c-2c(Cl)ccc13 (single isomer, unassigned) [Compound 14]", "Ki, pM": 21600}

###

STUDY TARGET: Myeloid Cell Leukemia 1 (Mcl-1) (Homo sapiens, UniProt Q07820)
Sequence (Q07820 whole entry): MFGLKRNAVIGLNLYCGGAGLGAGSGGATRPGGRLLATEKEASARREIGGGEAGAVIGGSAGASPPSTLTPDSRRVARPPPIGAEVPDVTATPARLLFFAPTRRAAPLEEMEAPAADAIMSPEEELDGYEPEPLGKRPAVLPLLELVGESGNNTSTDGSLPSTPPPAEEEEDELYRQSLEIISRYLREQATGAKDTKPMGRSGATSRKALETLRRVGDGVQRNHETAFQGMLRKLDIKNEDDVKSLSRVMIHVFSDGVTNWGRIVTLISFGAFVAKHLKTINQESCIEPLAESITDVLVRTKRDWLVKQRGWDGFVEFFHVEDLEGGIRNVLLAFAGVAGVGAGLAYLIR
Binary call on Ki with cut-off 8 nM: strictly below means YES, and equality or higher means NO.

{"COMPOUND": "Cc1c2c(nn1C)COCc1cc(n(C)n1)CSc1cc(c3ccccc3c1)OCCCc1c(C(=O)O)n(C)c3c-2c(Cl)ccc13 (single isomer, unassigned) [Compound 6]", "LABEL CLASS": "NO"}
{"COMPOUND": "COCCOCCn1nc2c(c1C)-c1c(Cl)ccc3c(c(C(=O)O)n(C)c13)CCCOc1cc(cc3cc(F)ccc13)CCc1cc(nn1C)COC2 (single isomer, unassigned) [Compound 20]", "LABEL CLASS": "YES"}
{"COMPOUND": "Cc1c2c(nn1C)C(C)OCc1cc(n(C)n1)CSc1cc(c3ccccc3c1)OCCCc1c(C(=O)O)n(C)c3c-2c(Cl)ccc13 (single isomer, unassigned) [Compound 12]", "LABEL CLASS": "YES"}
{"COMPOUND": "Cc1c2c(nn1C)C(C)OCc1cc(n(C)n1)CSc1cc(c3ccccc3c1)OCCCc1c(C(=O)O)n(C)c3c-2c(Cl)ccc13 (single isomer, unassigned) [Compound 11]", "LABEL CLASS": "NO"}

###

Tested on: MOLP-8 human multiple myeloma cell line
ASSAY NAME: Caspase-Glo 3/7 apoptosis induction assay in MOLP-8 cells
Format: cell-based
TEST CONDITIONS: 2 hours at 37° C., caspase-3/7 luminescence, averaged over all runs on all batches, read-out: MOLP8 Caspase-Glo AC50
VALUE KIND: AC50

{"COMPOUND": "COCCOCCn1nc(C)c2c1COCc1cc(n(C)n1)CCc1cc(c3ccc(F)cc3c1)OCCCc1c(C(=O)O)n(C)c3c-2c(Cl)ccc13 (single isomer, unassigned) [Compound 17]", "VALUE KIND": "AC50", "RESULT": "7.4 nM"}
{"COMPOUND": "Cc1c2c(nn1C)C(C)OCc1cc(n(C)n1)CSc1cc(c3ccccc3c1)OCCCc1c(C(=O)O)n(C)c3c-2c(Cl)ccc13 (single isomer, unassigned) [Compound 10]", "VALUE KIND": "AC50", "RESULT": "14700 nM"}
{"COMPOUND": "CCc1c2c(nn1C)COCc1cc(n(C)n1)CSc1cc(c3ccccc3c1)OCCCc1c(C(=O)O)n(C)c3c-2c(Cl)ccc13 (single isomer, unassigned) [Compound 7]", "VALUE KIND": "AC50", "RESULT": "83.7 nM"}
{"COMPOUND": "Cc1c2c(nn1C)COCc1cc(n[nH]1)CSc1cc(c3ccccc3c1)OCCCc1c(C(=O)O)n(C)c3c-2c(Cl)ccc13 (single isomer, unassigned) [Compound 14]", "VALUE KIND": "AC50", "RESULT": "18000 nM"}
{"COMPOUND": "Cc1c2c(nn1C)C(C)OCc1cc(n(C)n1)CSc1cc(c3ccccc3c1)OCCCc1c(C(=O)O)n(C)c3c-2c(Cl)ccc13 (single isomer, unassigned) [Compound 11]", "VALUE KIND": "AC50", "RESULT": "18100 nM"}
{"COMPOUND": "Cc1c2c(nn1C)COCc1cc(n(C)n1)CCc1cc(c3ccccc3c1)OCCCc1c(C(=O)O)n(C)c3c-2c(Cl)ccc13 (single isomer, unassigned) [Compound 2]", "VALUE KIND": "AC50", "RESULT": "954 nM"}
{"COMPOUND": "Cc1c2c(nn1C)COCc1cc(n(C)n1)CSc1cc(c3ccccc3c1)OCCCc1c(C(=O)O)n(C)c3c-2c(Cl)ccc13 (single isomer, unassigned) [Compound 6]", "VALUE KIND": "AC50", "RESULT": "6640 nM"}
{"COMPOUND": "Cc1c2c(nn1C)C(C)OCc1cc(n(C)n1)CSc1cc(c3ccccc3c1)OCCCc1c(C(=O)O)n(C)c3c-2c(Cl)ccc13 (single isomer, unassigned) [Compound 12]", "VALUE KIND": "AC50", "RESULT": "59.4 nM"}
{"COMPOUND": "COCCOCCn1nc(C)c2c1COCc1cc(n(C)n1)CCc1cc(c3ccc(F)cc3c1)OCCCc1c(C(=O)O)n(C)c3c-2c(Cl)ccc13 (single isomer, unassigned) [Compound 19]", "VALUE KIND": "AC50", "RESULT": "626 nM"}
{"COMPOUND": "Cc1c2c(nn1C)COCc1cc(n(C)n1)CSc1cc(c3ccccc3c1)OCCCc1c(C(=O)O)n(C)c3c-2c(Cl)ccc13 (single isomer, unassigned) [Compound 5]", "VALUE KIND": "AC50", "RESULT": "83.7 nM"}
{"COMPOUND": "COCCOCCn1nc2c(c1C)-c1c(Cl)ccc3c(c(C(=O)O)n(C)c13)CCCOc1cc(cc3cc(F)ccc13)CCc1cc(nn1C)COC2 (single isomer, unassigned) [Compound 18]", "VALUE KIND": "AC50", "RESULT": "17.6 nM"}
